Test system: HF rat chromaffin cells
Experiment: In vitro catecholamine secretion from chromaffin cells of HF and sham rats (nicotine stimulus, UK14304 pre-treatment)
Assay type: cell-based
Settings: Rattus norvegicus, AdβARKct cells, n=6, read-out: EC50 of UK14304-mediated inhibition of NEpi secretion
Text: Experimental Procedures: Adrenal chromaffin cell isolation and culture: The animal models of heart failure: mice with myocardial-targeted overexpression of calsequestrin (CSQ/Tg mice); male Sprague-Dawley rats (450-500 g; Harlan) ten weeks post-cryo-myocardial infarction (cryo-MI) (HF rats); as well as CSQ/βARKct mice, were previously established and characterized. Harding et al., 98 P.N.A.S. USA, 5809-14 (2001); Most et al., 114 J. Clin. Invest. 1550-63 (2004). […]
Recorded Endpoint: EC50 (nM)
Please state the figure in nM; there is no need to write the unit.

Quote EC50 reported for Brc1c(NC2=NCCN2)ccc2nccnc12 [UK14304] please. 110

The values you see were collected from patent US20100048479A1.
